Hi there, I'd appreciate the recorded melting point for every entry that follows.

Reference set (4 entries):
compound=COC(=O)c1ccccc1S(=O)(=O)NC(=Nc1nc(C)cc(OC)n1)SC result="143 to 144 °C"
compound=Clc1ccc(-c2c(Cc3nc4ccccc4s3)cnn2-c2ccccc2)cc1 result="135 to 137 °C"
compound=Cc1cccc(-c2ccc(C(=O)O)cc2)c1 result="198 to 200 °C"
compound=COCCOc1ccc(CCCOc2cc(CCC(=O)O)n(C)n2)c(Oc2ncc(C(F)(F)F)cc2Cl)c1 result="114 to 115 °C"

From here, focus on the item given below.
Look up melting point: COc1cc(Cc2cnc(N)nc2N)cc(OC(C)C(C)=O)c1OC (stereo not given)
168 °C
